Tested on: Escherichia coli TOP10
Test: shrunken log2 fold change of peptide-encoding DNA abundance (4.5 h post-induction vs induction); higher = less antimicrobial activity (less host growth inhibition)
Settings: time post-induction: 4.5 h; library: site-saturation at positions 5, 18, 19, 20
Reported shrunken log2 fold change values are given for each entry in this list.
The response must contain the number and no unit.

chain_sequence=RRIRERPPRLPRPRPRPIADPRP result=0.13
chain_sequence=RRIRRRPPRLPRPRPRPTMVPRP result=0.283
chain_sequence=RRIRPRPPRLPRPRPRPDIQPRP result=-0.222
chain_sequence=RRIRTRPPRLPRPRPRPGHFPRP result=-0.215
chain_sequence=RRIRYRPPRLPRPRPRPVGSPRP result=-0.277
chain_sequence=RRIRPRPPRLPRPRPRPGRPPRP result=0.155
chain_sequence=RRIRWRPPRLPRPRPRPEMSPRP result=-0.0114
chain_sequence=RRIRTRPPRLPRPRPRPTAFPRP result=0.13

Q: # lookup: shrunken log2 fold change of RRIRYRPPRLPRPRPRPQMRPRP
A: -0.00174

Q: Continue with RRIRKRPPRLPRPRPRPHHGPRP
A: -0.11

Q: Continue with RRIRSRPPRLPRPRPRPPCAPRP
A: 0.497

Q: Continue with RRIRKRPPRLPRPRPRPVPMPRP
A: 0.355

Q: Continue with RRIRMRPPRLPRPRPRPMYIPRP
A: -0.0178

---

Tested on: Escherichia coli TOP10
Assay: shrunken log2 fold change of peptide-encoding DNA abundance (4.5 h post-induction vs induction); higher = less antimicrobial activity (less host growth inhibition)
Conditions: time post-induction: 4.5 h; library: site-saturation at positions 5, 18, 19, 20
Property Name: shrunken log2 fold change
The response must contain the number and no unit.

chain_sequence=RRIRKRPPRLPRPRPRPVMMPRP assayed_target="Escherichia coli TOP10" result=0.155
chain_sequence=RRIRLRPPRLPRPRPRPWLKPRP assayed_target="Escherichia coli TOP10" result=0.0827
chain_sequence=RRIRWRPPRLPRPRPRPAFAPRP assayed_target="Escherichia coli TOP10" result=1.23
chain_sequence=RRIRCRPPRLPRPRPRPAKWPRP assayed_target="Escherichia coli TOP10" result=0.235
chain_sequence=RRIRCRPPRLPRPRPRPKSTPRP assayed_target="Escherichia coli TOP10" result=-0.137

Q: # lookup: shrunken log2 fold change of RRIRKRPPRLPRPRPRPEWWPRP
A: 0.0708

Q: Continue with RRIRERPPRLPRPRPRPYWEPRP
A: -0.219

---

System: Escherichia coli TOP10;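 note: peptides expressed intracellularly from a pBAD plasmid library in pooled LB shake-flask culture, induced with 0.3% L-arabinose, DNA abundance read by NGS, three biological replicates, DESeq2 with apeglm shrinkage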
Assay: shrunken log2 fold change of peptide-encoding DNA abundance (4.5 h post-induction vs induction); higher = less antimicrobial activity (less host growth inhibition)
Conditions: time post-induction: 4.5 h; library: site-saturation at positions 5, 18, 19, 20
Property Name: shrunken log2 fold change
The response must contain the number and no unit.

Record excerpt, results attached:
chain_sequence=RRIRYRPPRLPRPRPRPEGDPRP assayed_target="Escherichia coli TOP10" result=-0.00396
chain_sequence=RRIRQRPPRLPRPRPRPPRTPRP assayed_target="Escherichia coli TOP10" result=0.669
chain_sequence=RRIRKRPPRLPRPRPRPYMHPRP assayed_target="Escherichia coli TOP10" result=-0.0355
chain_sequence=RRIRIRPPRLPRPRPRPRGRPRP assayed_target="Escherichia coli TOP10" result=0.229
chain_sequence=RRIRRRPPRLPRPRPRPCAEPRP assayed_target="Escherichia coli TOP10" result=0.393
chain_sequence=RRIRTRPPRLPRPRPRPVDEPRP assayed_target="Escherichia coli TOP10" result=-0.146

Q: # lookup: shrunken log2 fold change of RRIRARPPRLPRPRPRPDDQPRP
A: 1.41

Q: Continue with RRIRQRPPRLPRPRPRPLDHPRP
A: -0.198

Q: Continue with RRIRHRPPRLPRPRPRPSSNPRP
A: -0.399

Q: Continue with RRIRMRPPRLPRPRPRPERDPRP
A: 2.25

Q: Continue with RRIRIRPPRLPRPRPRPKHSPRP
A: -0.447

Q: Continue with RRIRKRPPRLPRPRPRPCNYPRP
A: -0.0312

Q: Continue with RRIRWRPPRLPRPRPRPCVYPRP
A: -0.00208

Source listed as the supplement of paper PMC9112550.
